The reported measurements were obtained from ChEMBL document CHEMBL1156227.

Aminopeptidase N (Sus scrofa, UniProt P15145) data, read-out IC50
Use µM as the unit, but write only the number.

Here are 8 molecules together with their reported answers.
>  <molecule>
CCC(N)P(=O)(O)Oc1cc(C)ccc1C (stereo unspecified)

>  <IC50 (µM)>
120

$$$$
>  <molecule>
Cc1cc(C)c(C)c(OP(=O)(O)C(C)N)c1 (stereo unspecified)

>  <IC50 (µM)>
14

$$$$
>  <molecule>
CC(N)P(=O)(O)O (stereo unspecified)

>  <IC50 (µM)>
42

$$$$
>  <molecule>
Cc1ccc(OP(=O)(O)C(N)CCc2ccccc2)cc1C (stereo unspecified)

>  <IC50 (µM)>
2.2

$$$$
>  <molecule>
CCC(N)P(=O)(O)Oc1ccc(C(C)(C)C)cc1 (stereo unspecified)

>  <IC50 (µM)>
1.1

$$$$
>  <molecule>
CCCCC(N)P(=O)(O)Oc1cc(C)ccc1C (stereo unspecified)

>  <IC50 (µM)>
200

$$$$
>  <molecule>
CCCCCC(N)P(=O)(O)Oc1ccccc1 (stereo unspecified)

>  <IC50 (µM)>
4.8

$$$$
>  <molecule>
CC(C)(C)CC(C)(C)c1ccc(OP(=O)(O)C(N)CCc2ccccc2)cc1 (stereo unspecified)

>  <IC50 (µM)>
6.3

$$$$

Q: Entry CCCCC(N)P(=O)(O)O (stereo unspecified) : reported IC50 = ?
Result: 75

Q: And the next one, NC(CCc1ccccc1)P(=O)(O)Oc1ccccc1 (stereo unspecified) ?
Result: 6.2

Q: Same question for CCc1ccc(OP(=O)(O)C(C)N)cc1 (stereo unspecified) please.
Result: 8.3

Q: Same question, CC(C)CC(N)P(=O)(O)O (stereo unspecified) this time
Result: 37

Q: Quick one: CC(C)CC(N)P(=O)(O)Oc1ccccc1 (stereo unspecified)
Result: 9.3

Q: And what about the molecule CC(C)(C)c1ccc(OP(=O)(O)C(N)CCc2ccccc2)cc1 (stereo unspecified) ?
Result: 1.9

Q: And for CC(C)c1ccc(OP(=O)(O)C(N)CCc2ccccc2)cc1 (stereo unspecified) ?
Result: 0.5

Q: Moving on to CCCCC(N)P(=O)(O)Oc1ccc(OC)cc1 (stereo unspecified)
Result: 210

Q: Now give it for CCCCC(N)P(=O)(O)Oc1ccc(C)c(C)c1 (stereo unspecified) too.
Result: 1.4

* * *

Form: system (Aminopeptidase N (Homo sapiens)), quantity (pKi), values below.
Hey, just a heads up that pKi is the negative log base 10 of the concentration in molar.

>  <compound>
CC(C)CC(N)P(=O)(O)O (centres undefined)

>  <pKi>
4.28

$$$$
>  <compound>
NC(Cc1ccccc1)P(=O)(O)Oc1ccccc1 (centres undefined)

>  <pKi>
4.56

$$$$

Q: Look at this compound and give its reported pKi. CC(C)CC(N)P(=O)(O)Oc1ccccc1 (centres undefined)
Result: 4.28

Q: Now the same for NC(Cc1ccccc1)P(=O)(O)O (centres undefined)
Result: 4.56

* * *

- target.or.system: Aminopeptidase N (Sus scrofa, UniProt P15145)
- Sequence (P15145 whole entry): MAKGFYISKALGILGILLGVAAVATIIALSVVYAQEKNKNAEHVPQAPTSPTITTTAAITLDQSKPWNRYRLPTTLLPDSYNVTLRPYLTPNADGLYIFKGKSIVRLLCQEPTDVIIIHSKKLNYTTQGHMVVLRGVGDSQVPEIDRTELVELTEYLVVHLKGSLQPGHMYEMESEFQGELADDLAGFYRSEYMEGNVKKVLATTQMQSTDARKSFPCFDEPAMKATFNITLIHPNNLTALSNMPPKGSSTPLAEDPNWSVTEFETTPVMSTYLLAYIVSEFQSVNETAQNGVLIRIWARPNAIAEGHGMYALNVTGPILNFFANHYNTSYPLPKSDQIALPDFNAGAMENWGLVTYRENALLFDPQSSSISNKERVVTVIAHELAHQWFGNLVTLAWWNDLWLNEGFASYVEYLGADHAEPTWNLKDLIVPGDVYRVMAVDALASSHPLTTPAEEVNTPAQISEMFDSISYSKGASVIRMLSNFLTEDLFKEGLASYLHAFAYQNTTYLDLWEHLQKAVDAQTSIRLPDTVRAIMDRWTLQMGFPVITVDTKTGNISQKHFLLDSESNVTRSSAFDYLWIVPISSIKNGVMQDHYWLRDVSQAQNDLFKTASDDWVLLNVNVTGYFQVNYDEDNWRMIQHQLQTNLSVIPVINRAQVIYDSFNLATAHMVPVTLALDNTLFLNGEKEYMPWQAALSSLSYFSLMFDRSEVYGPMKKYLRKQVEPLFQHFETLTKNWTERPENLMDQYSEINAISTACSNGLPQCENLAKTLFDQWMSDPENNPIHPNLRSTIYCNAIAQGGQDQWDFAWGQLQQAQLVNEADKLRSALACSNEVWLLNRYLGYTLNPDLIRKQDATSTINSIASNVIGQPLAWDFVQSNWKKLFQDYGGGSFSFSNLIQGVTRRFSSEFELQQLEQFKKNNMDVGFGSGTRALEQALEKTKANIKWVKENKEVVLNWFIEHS
pIC50: −log10 of the molar value.
Returns Satisfied if the recorded pIC50 is greater than or equal to 4, and Not satisfied otherwise.

Answered cases to consult:
>  <molecule>
CCCCC(N)P(=O)(O)Oc1ccc(C(=O)O)cc1 (stereo not drawn)

>  <category.label>
Satisfied

$$$$
>  <molecule>
NC(c1ccccc1)P(=O)(O)O (stereo not drawn)

>  <category.label>
Not satisfied

$$$$
>  <molecule>
COc1ccc(OP(=O)(O)C(N)CCc2ccccc2)cc1 (stereo not drawn)

>  <category.label>
Satisfied

$$$$
>  <molecule>
CCC(N)P(=O)(O)Oc1ccc(C)c(C)c1 (stereo not drawn)

>  <category.label>
Satisfied

$$$$
>  <molecule>
CCC(N)P(=O)(O)Oc1ccc(C(=O)O)cc1 (stereo not drawn)

>  <category.label>
Not satisfied

$$$$

Q: Could you verify whether the entry CC(C)C(N)P(=O)(O)Oc1ccccc1 (stereo not drawn) shows pIC50 of no less than 4?
Result: Satisfied

Q: // query: CCC(N)P(=O)(O)O (stereo not drawn)
Result: Satisfied

Q: Then this molecule: CC(N)P(=O)(O)Oc1ccc(C(C)(C)C)cc1 (stereo not drawn)
Result: Satisfied

Q: Same thing, different molecule: CCC(N)P(=O)(O)Oc1ccc(C)cc1 (stereo not drawn)
Result: Satisfied

Q: Queued: NC(CCc1ccccc1)P(=O)(O)Oc1ccc(C(=O)O)cc1 (stereo not drawn)
Result: Satisfied

Q: Do the same for NC(c1ccccc1)P(=O)(O)Oc1ccccc1 (stereo not drawn) please
Result: Satisfied

Q: Same question, NC(Cc1ccccc1)P(=O)(O)O (stereo not drawn) this time
Result: Satisfied
